meta.source: patent US20240279241A1

target: KRAS G12C (Homo sapiens, UniProt P01116, G12C); construct: 4 nM KRAS; aa1-188 containing the G12V, G12C, G12A or G12S amino acid substitution; experiment: HTRF nucleotide exchange assay (NEA), KRAS G12C; format: biochemical
Sequence (P01116 1-188 isoform P01116-2 G12C): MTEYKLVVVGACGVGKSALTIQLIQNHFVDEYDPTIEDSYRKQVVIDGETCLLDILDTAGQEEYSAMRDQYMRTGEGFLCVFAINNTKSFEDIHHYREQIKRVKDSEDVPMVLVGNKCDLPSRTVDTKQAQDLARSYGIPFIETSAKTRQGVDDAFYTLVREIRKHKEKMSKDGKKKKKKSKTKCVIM
# reported IC50; entries follow

Some solved cases for reference:
CN(C)CC1(COc2nc(N3CCCOCC3)c3cnc(-c4cc(O)cc5ccccc45)c(F)c3n2)CC1	10 to 100 nM
Oc1cc(-c2ncc3c(N4CCOCC4)nc(OCC45CCCN4CCC5)nc3c2F)c2ccccc2c1	100 to 10000 nM
COCC1(CNc2nc(OCC34CCCN3CCC4)nc3c(F)c(-c4cc(O)cc5ccccc45)ncc23)COC1	100 to 10000 nM
Oc1cc(-c2ncc3c(N4CC5CCC(C4)O5)nc(OCC45CCCN4CCC5)nc3c2F)c2ccccc2c1	100 to 10000 nM
Oc1cc(-c2ncc3c(N4CCC5COCC5C4)nc(OCC45CCCN4CCC5)nc3c2F)c2ccccc2c1 (stereo not drawn)	100 to 10000 nM
Oc1cc(-c2ncc3c(N4CCCOCC4)nc(OCC45CCCN4CCC5)nc3c2F)c2ccccc2c1	≤ 10 nM
Oc1cc(-c2ncc3c(N4CC5CNCC5C4)nc(OCC45CCCN4CCC5)nc3c2F)c2ccccc2c1 (stereo not drawn)	100 to 10000 nM
O=C1CN(c2nc(OCC34CCCN3CCC4)nc3c(F)c(-c4cc(O)cc5ccccc45)ncc23)CCN1	100 to 10000 nM

Turning to the following compound.
Fill blank: measured IC50 of the compound CC1COCCN(c2nc(OCC34CCCN3CCC4)nc3c(F)c(-c4cc(O)cc5ccccc45)ncc23)C1 (stereo not drawn) is ____.
10 to 100 nM
